Target: D(2) dopamine receptor (Homo sapiens, UniProt P14416)
Sequence (P14416 whole entry): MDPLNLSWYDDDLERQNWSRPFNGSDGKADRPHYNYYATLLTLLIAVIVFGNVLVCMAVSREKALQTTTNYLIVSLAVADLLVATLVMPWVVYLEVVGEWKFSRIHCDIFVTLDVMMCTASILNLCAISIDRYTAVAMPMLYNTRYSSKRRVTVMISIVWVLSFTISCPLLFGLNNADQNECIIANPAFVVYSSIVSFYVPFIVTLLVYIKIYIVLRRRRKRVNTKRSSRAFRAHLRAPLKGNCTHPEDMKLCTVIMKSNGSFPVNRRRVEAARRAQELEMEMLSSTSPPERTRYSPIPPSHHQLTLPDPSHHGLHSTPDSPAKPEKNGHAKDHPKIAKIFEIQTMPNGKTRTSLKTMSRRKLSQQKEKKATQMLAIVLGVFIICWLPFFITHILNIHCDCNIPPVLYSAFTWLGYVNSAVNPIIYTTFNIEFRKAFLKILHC
Assay: Antagonist activity at human D2 receptor expressed in CHO cells co-expressing G0 by [35S]GTPgammaS binding assay
MEASURED QUANTITY: Ki (nM)
Could you give me the number in nM? Just the number is fine.

[[record]]
item_smiles = "Cn1c(CN2CCC(c3ccccc3F)CC2)nc2ccccc21"
target_under_test = "D(2) dopamine receptor (Homo sapiens, UniProt P14416)"
value = 39.8


Now let's try a different one.
Data point: `Cn1c(CN2CCC(c3ncc(C(F)(F)F)cc3Cl)CC2)nc2ccccc21` ; Ki = 794

====

Target: Metabotropic glutamate receptor 5 (Homo sapiens, UniProt P41594)
Sequence (P41594 whole entry): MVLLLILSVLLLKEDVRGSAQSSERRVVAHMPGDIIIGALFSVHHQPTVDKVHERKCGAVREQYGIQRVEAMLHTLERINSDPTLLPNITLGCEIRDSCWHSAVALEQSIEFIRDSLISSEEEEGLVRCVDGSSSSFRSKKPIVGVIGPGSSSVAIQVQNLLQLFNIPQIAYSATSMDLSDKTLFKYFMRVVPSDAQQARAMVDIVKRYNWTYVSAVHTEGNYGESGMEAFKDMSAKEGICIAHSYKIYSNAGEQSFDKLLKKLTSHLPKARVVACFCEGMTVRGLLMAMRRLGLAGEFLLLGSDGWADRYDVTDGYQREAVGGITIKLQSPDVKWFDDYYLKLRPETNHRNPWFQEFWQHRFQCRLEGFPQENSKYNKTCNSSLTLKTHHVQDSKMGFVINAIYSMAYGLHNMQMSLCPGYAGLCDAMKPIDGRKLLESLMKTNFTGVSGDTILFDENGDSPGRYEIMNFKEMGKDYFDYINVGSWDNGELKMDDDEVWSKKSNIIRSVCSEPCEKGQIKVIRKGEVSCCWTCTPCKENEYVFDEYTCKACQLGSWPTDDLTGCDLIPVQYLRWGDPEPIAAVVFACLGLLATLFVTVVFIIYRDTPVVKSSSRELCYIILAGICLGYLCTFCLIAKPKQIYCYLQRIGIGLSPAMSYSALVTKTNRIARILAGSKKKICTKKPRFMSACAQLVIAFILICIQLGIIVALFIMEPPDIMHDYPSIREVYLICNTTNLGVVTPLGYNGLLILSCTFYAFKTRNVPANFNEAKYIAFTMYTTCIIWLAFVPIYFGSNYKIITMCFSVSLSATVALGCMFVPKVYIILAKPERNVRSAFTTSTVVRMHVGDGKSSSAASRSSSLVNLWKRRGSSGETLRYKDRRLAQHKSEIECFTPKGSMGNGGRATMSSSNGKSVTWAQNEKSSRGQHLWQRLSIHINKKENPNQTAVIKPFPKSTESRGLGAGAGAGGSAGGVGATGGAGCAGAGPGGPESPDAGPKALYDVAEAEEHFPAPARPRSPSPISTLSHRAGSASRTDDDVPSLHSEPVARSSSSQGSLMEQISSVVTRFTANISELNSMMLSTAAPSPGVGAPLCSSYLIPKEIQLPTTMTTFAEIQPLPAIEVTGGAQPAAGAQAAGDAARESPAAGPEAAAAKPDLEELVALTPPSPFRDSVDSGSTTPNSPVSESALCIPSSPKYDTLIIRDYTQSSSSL
Assay: Positive modulation of mGluR5
pEC50: −log10 of the molar value.
MEASURED QUANTITY: pEC50

Data point: `Cn1c(CN2CCC(c3ccccc3F)CC2)nc2ccccc21` ; pEC50 = < 4.80
